Numbers sourced from ChEMBL document CHEMBL3044687.

Test system: Pseudomonas aeruginosa
Assay: Antibacterial activity against Pseudomonas aeruginosa at 100 ug/ml after 24 hr by disk diffusion method
Assay type: functional
Settings: read-out: DIZ
metricName: zone of inhibition at 100 µg/mL (mm)

- smilesInput: "O=C1NC(c2ccccc2)(c2ccccc2)C(=O)N1Cn1ccnc1"
  valueMeasured: 10
- smilesInput: "O=C1NC(c2ccccc2)(c2ccccc2)C(=O)N1CNc1nccs1"
  valueMeasured: 12
- smilesInput: "CN(C)CN1C(=O)N(c2ccccc2)C(=O)C1(c1ccccc1)c1ccccc1"
  valueMeasured: 10
- smilesInput: "O=C1N(c2ccccc2)C(=O)C(c2ccccc2)(c2ccccc2)N1Cn1cnc2ccccc21"
  valueMeasured: 8
- smilesInput: "O=C1NC(c2ccccc2)(c2ccccc2)C(=O)N1CN1CCOCC1"
  valueMeasured: 8
- smilesInput: "CN(C)CN1C(=O)NC(c2ccccc2)(c2ccccc2)C1=O"
  valueMeasured: 10
- smilesInput: "O=C1c2ccccc2C(=O)N1CN1C(=O)N(c2ccccc2)C(=O)C1(c1ccccc1)c1ccccc1"
  valueMeasured: 8

* * *

Tested on: Escherichia coli
Assay: Antibacterial activity against Escherichia coli at 200 ug/ml after 24 hr by disk diffusion method
Assay type: functional
Settings: read-out: DIZ

- smilesInput: "O=C1NC(c2ccccc2)(c2ccccc2)C(=O)N1Cn1cnc2ccccc21"
  zone of inhibition at 200 µg/mL [mm]: 24
- smilesInput: "CCN(CC)CN1C(=O)NC(c2ccccc2)(c2ccccc2)C1=O"
  zone of inhibition at 200 µg/mL [mm]: 18
- smilesInput: "O=C1NC(c2ccccc2)(c2ccccc2)C(=O)N1Cn1nnc2ccccc21"
  zone of inhibition at 200 µg/mL [mm]: 18
- smilesInput: "O=C1NC(c2ccccc2)(c2ccccc2)C(=O)N1CN1CCOCC1"
  zone of inhibition at 200 µg/mL [mm]: 17
- smilesInput: "CN1CCN(CN2C(=O)N(c3ccccc3)C(=O)C2(c2ccccc2)c2ccccc2)CC1"
  zone of inhibition at 200 µg/mL [mm]: 16
- smilesInput: "CN(C)CN1C(=O)NC(c2ccccc2)(c2ccccc2)C1=O"
  zone of inhibition at 200 µg/mL [mm]: 22

* * *

Tested on: Escherichia coli
Test: Antibacterial activity against Escherichia coli at 200 ug/ml after 24 hr by disk diffusion method
Format: functional
Conditions: read-out: DIZ

- smilesInput: "O=C1c2ccccc2C(=O)N1CN1C(=O)N(c2ccccc2)C(=O)C1(c1ccccc1)c1ccccc1"
  assayedSystem: "Escherichia coli"
  zone of inhibition at 200 µg/mL [mm]: 20
- smilesInput: "O=C1N(c2ccccc2)C(=O)C(c2ccccc2)(c2ccccc2)N1CNc1nccs1"
  assayedSystem: "Escherichia coli"
  zone of inhibition at 200 µg/mL [mm]: 18
- smilesInput: "O=C1NC(c2ccccc2)(c2ccccc2)C(=O)N1CNc1nc2ccccc2s1"
  assayedSystem: "Escherichia coli"
  zone of inhibition at 200 µg/mL [mm]: 23
- smilesInput: "O=C1NC(c2ccccc2)(c2ccccc2)C(=O)N1Cn1ccnc1"
  assayedSystem: "Escherichia coli"
  zone of inhibition at 200 µg/mL [mm]: 22
- smilesInput: "CC1(C)S[C@@H]2[C@H](NC(=O)[C@H](N)c3ccccc3)C(=O)N2[C@H]1C(=O)O"
  assayedSystem: "Escherichia coli"
  zone of inhibition at 200 µg/mL [mm]: 29
